# measurement description: Biliary secretion study of CLF in wild type, Abcc2-/- and Abcc3-/- mice
# Assay type: in vivo
# test settings: FVB, mouse, blood, intravenous, 100 μL of 1 mmol/L CLF, Abcc2-/- mice, 120 minutes after administration; read-out: blood levels of CLF
# Procedure: Mice received 100 μL of 1 mmol/L CLF by injection in the tail vein. Data represent means±SD. Plasma levels are expressed in nmol/L and levels in urine, liver and bile as percentage of administered dose. Significance was tested using two-sided Student's t-test: *P<0.05 for Abcc2^-/- vs wild type mice. Data represent means±SD. […] The amount CLF was quantitated by measurement of fluorescence as described above.
experimental readout: concentration at 120 min (nM)
Reply numerically in nM, unit not repeated.

Name the reported concentration at 120 min value associated with the compound CC(CCC(=O)NC(CCCCNC(=S)Nc1ccc(-c2c3ccc(=O)cc-3oc3cc(O)ccc23)c(C(=O)O)c1)C(=O)O)C1CCC2C3C(O)CC4CC(O)CCC4(C)C3CC(O)C12C (stereo not shown)
1310

* * *

# measurement description: Biliary secretion study of CLF in wild type, Abcc2-/- and Abcc3-/- mice
# Type: in vivo
# test settings: FVB, mouse, blood, intravenous, 100 μL of 1 mmol/L CLF, wt mice, 120 minutes after administration; read-out: blood levels of CLF
experimental readout: concentration at 120 min (nM)
Reply numerically in nM, unit not repeated.

Name the reported concentration at 120 min value associated with the compound CC(CCC(=O)NC(CCCCNC(=S)Nc1ccc(-c2c3ccc(=O)cc-3oc3cc(O)ccc23)c(C(=O)O)c1)C(=O)O)C1CCC2C3C(O)CC4CC(O)CCC4(C)C3CC(O)C12C (stereo not shown)
83
